Target: T1, EBV gp350 expressed on the surface of stably transfected CHO cells (Epstein-Barr virus, UniProt P03200 1-907)
T1 construct: also called native gp350; gp350 expressing CHO cells
T1 sequence: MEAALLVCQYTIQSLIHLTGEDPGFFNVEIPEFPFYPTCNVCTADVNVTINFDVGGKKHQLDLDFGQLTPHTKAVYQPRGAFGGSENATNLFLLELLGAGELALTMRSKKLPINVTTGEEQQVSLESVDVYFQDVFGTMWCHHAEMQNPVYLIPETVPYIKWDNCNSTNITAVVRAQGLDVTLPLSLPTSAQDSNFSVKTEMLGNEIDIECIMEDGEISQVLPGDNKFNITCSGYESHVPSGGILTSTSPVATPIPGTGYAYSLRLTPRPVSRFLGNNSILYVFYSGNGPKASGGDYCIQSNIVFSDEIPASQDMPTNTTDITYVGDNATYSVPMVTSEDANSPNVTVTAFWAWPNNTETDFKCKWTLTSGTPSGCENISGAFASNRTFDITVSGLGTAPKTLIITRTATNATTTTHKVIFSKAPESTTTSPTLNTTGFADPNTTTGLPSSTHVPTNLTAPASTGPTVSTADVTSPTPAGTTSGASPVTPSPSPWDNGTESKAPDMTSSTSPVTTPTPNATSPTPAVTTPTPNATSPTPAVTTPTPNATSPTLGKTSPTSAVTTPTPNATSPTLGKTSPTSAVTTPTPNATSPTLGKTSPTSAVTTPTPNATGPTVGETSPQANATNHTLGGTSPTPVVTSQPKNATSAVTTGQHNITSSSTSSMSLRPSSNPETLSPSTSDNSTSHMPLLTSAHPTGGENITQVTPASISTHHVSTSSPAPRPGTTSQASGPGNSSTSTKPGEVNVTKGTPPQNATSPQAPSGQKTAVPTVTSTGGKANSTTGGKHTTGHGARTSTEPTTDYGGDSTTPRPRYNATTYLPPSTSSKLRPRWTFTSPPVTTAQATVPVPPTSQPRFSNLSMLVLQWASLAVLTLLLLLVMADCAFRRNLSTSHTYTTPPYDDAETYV
Assay: cross-competition on gp350-CHO cells (flow), unlabeled 500 µg/ml; competitor: biotinylated HB11
So I've got a bunch of binders here, and I need their % inhibition of biotinylated nAbs values.
Respond with the bare value in %.

Query: Quick check: % inhibition of biotinylated nAbs of murine 72A1 (m72A1), anti-EBV gp350 neutralizing antibody from hybridoma HB168 (antibody, V domains shown, also called nAb-72A1; mouse 72A1) VH: EVQLQQSGPELVKPGTSMKISCKASGSSFTDYTMNWMKQSHGKNLEWIGLINPYNGGTRYNQKFKGKATLTLDKSSSTAYMEVLSLTSEDSAVYYCAGGLRRVNWFAYWGQGTLVSVSA VL: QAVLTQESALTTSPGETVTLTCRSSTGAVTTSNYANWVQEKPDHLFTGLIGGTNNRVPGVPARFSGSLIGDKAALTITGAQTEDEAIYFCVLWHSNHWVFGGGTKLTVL ?
Response: 90

Query: Queued: HB11 (antibody, V domains shown) VH: PSLVKPSQTLSLTCSVTGDSITSGFWNWIRKFPGNKLEYMGYISYSGSTYYNPSLKSRISITRDTSKNQYYLQLNSVTTEDTATYYCARGNGGNYDWYFDVWGAGTTVTVSS VL: AIMSASLGEKVTMSCRASSSVNFMNWYQQKSDDSPKLLIYYISNLAPGVPARFSGSGSGNSYSLTISGMEGEDAATYYCQQFTSSPSWTFGGGTKLEIKR
Response: 96

Query: Also, HB1 (antibody, V domains shown) VH: PGLVAPSQSLSITCTVSGFLLTTYGVHWVRQPPGKGLEWLGVIWAGGSTNYNSALMSRLSINKDISKSQVFLKMNSLQTDDTAMYYCTRDRGYGYLYAMDYWGQGTSVTVSS VL: KFMSTSVGDRVSVTCKASQNVGTNVAWYQQKPGQSPKALIYSTSSRYTGVPDRFAGSGSGTDYTLTISNVQSEDLAEYFCQQYNTYPYTFGGGTRLDIKR please.
Response: 96

Query: Try this binder next: HB17 (antibody, V domains shown) VH: AELVIPGASVKVSCKASGYTFTSYWIHWVKQWPGQGLEWIGEINPNNGHTNYNEKFKSKATLTVDKSSSTAYMQLSSLTSEDSAVYYCARNLFYYSRPDYWGQGTSVTVSS VL: SSLSASLGDRVTISCRASQDIGNYLNWYQQKPDGTIKLLIYYTSRLHSGVPSRFSGSGSGTDYSLTISNLEEEDIATYFCQQGNTLPPTFGGGTKLEIKR
Response: 11

The measurements presented in this section are drawn from patent US20210115113A1.
